The measurements presented in this section are drawn from BindingDB's records for doi:10.1016/j.bmcl.2005.06.067.

PROCEDURE_DETAILS: Inhibitory activity against 5-hydroxytryptamine 1D receptor in calf
EXPERIMENTAL_READOUT: pIC50
Answer as the number alone; pIC50 is minus log10 of concentration in mol/L.

Return reported pIC50; argument: CCc1[nH]c2ccc(OC)cc2c1CCN(C)C
5.85

* * *

PROCEDURE_DETAILS: Inhibitory activity against 5-hydroxytryptamine 1D receptor in calf
pIC50: −log10 of the molar value.
EXPERIMENTAL_READOUT: pIC50

Return reported pIC50; argument: COc1ccc2[nH]c(C)c(C3=CCNCC3)c2c1
< 6.00
